Where do these numbers come from? They come from patent US8624002B2.

Reported Tm1 (° C.) values for a set of molecules
assay: Intrinsic thermodynamic stability by DSC; assay type: physicochemical; conditions: 0.79 mg/mL, pH 6, 10 mM citrate, 10 mM phosphate

molecule	Tm1 (° C.) / °C
Hu2B5.4: humanized 2B5-8.0; VH SEQ ID NO 66, VL SEQ ID NO 67 (antibody, V domains shown) VH: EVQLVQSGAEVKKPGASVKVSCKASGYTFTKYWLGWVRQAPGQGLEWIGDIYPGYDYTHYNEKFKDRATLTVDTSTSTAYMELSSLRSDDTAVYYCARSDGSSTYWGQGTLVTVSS VL: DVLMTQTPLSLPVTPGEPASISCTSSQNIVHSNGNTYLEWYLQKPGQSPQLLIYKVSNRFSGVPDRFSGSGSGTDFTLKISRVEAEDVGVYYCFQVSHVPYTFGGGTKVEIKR	71.095
Hu2B5.6: humanized 2B5-8.0; VH SEQ ID NO 70, VL SEQ ID NO 71 (antibody, V domains shown) VH: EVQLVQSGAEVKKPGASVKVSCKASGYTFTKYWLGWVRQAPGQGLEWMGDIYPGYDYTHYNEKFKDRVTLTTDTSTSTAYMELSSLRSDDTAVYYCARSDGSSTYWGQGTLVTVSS VL: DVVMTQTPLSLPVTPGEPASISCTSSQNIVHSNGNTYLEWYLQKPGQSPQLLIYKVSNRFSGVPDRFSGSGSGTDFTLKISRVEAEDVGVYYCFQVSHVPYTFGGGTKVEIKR	73.035
Hu2B5.2: humanized 2B5-8.0; VH SEQ ID NO 62, VL SEQ ID NO 63 (antibody, V domains shown) VH: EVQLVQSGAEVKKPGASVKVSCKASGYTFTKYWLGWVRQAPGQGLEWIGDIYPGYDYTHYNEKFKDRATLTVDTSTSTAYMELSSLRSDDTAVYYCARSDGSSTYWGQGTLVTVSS VL: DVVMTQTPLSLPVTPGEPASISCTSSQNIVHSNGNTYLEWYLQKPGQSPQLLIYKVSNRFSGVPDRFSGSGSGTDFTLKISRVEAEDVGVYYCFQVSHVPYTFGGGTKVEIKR	72.845
Hu2B5.8: humanized 2B5-8.0; VH SEQ ID NO 74, VL SEQ ID NO 75 (antibody, V domains shown) VH: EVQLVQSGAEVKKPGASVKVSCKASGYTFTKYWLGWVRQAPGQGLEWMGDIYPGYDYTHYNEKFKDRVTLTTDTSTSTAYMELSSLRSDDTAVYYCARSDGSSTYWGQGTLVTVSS VL: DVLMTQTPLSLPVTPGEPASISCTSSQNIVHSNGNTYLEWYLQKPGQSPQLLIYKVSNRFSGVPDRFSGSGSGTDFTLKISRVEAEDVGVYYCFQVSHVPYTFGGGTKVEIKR	72.96
Hu2B5.9: humanized 2B5-8.0; VH SEQ ID NO 76, VL SEQ ID NO 77 (antibody, V domains shown) VH: EVQLVQSGAEVKKPGASVKVSCKASGYTFTKYWLGWVRQAPGQGLEWMGDIYPGYDYTHYNEKFKDRVTMTTDTSTSTAYMELRSLRSDDTAVYYCARSDGSSTYWGQGTLVTVSS VL: DIVMTQTPLSLPVTPGEPASISCTSSQNIVHSNGNTYLEWYLQKPGQSPQLLIYKVSNRFSGVPDRFSGSGSGTDFTLKISRVEAEDVGVYYCFQVSHVPYTFGGGTKVEIKR	73.235
Hu2B5.1: humanized 2B5-8.0; VH SEQ ID NO 60, VL SEQ ID NO 61 (antibody, V domains shown) VH: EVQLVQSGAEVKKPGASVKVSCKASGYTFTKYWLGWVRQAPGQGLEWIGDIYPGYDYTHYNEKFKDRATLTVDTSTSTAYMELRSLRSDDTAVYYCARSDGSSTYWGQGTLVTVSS VL: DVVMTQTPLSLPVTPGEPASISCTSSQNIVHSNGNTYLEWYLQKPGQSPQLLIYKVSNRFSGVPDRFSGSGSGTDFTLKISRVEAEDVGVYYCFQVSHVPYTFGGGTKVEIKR	72.835
